Source listed as paper PMC6539891.

# tgt: hCA II (Homo sapiens)
# Construct: gene CA2; recombinant from E. coli; cytosolic isoform
# testDescription: stopped-flow CO2 hydration assay
# Type: biochemical
# From the text: stopped-flow CO2 hydration assay on hCA II
Reported log10 of Ki values are given for each entry in this list.
parameter: log10 of Ki (log10 of the value in nM)

[[record]]
compound = "NS(=O)(=O)c1ccc2[nH]c(C(=O)NN=C3CCCC3)c(-c3ccccc3)c2c1"
measvalue = 3.78

[[record]]
compound = "CC=NNC(=O)c1[nH]c2ccc(S(N)(=O)=O)cc2c1-c1ccccc1"
measvalue = 3.77

[[record]]
compound = "CCC(C)=NNC(=O)c1[nH]c2ccc(S(N)(=O)=O)cc2c1-c1ccccc1"
measvalue = 3.90

[[record]]
compound = "CC1CCC(=NNC(=O)c2[nH]c3ccc(S(N)(=O)=O)cc3c2-c2ccccc2)CC1 (stereo not drawn)"
measvalue = 3.95

[[record]]
compound = "CN1CCC(=NNC(=O)c2[nH]c3ccc(S(N)(=O)=O)cc3c2-c2ccccc2)CC1"
measvalue = 2.49

[[record]]
compound = "CC(C)=NNC(=O)c1[nH]c2ccc(S(N)(=O)=O)cc2c1-c1ccccc1"
measvalue = 3.93

[[record]]
compound = "CCC1CCC(=NNC(=O)c2[nH]c3ccc(S(N)(=O)=O)cc3c2-c2ccccc2)CC1 (stereo not drawn)"
measvalue = 3.11

[[record]]
compound = "NS(=O)(=O)c1ccc2[nH]c(C(=O)NN=C3CCCCC3)c(-c3ccccc3)c2c1"
measvalue = 3.77

[[record]]
compound = "NS(=O)(=O)c1ccc2[nH]c(C(=O)NN=C3CCC(c4ccccc4)CC3)c(-c3ccccc3)c2c1 (stereo not drawn)"
measvalue = 2.92

